These measurements were taken from patent US20250171452A1.

- system: IDO2 (Homo sapiens (Human), UniProt Q6ZQW0)
- Sequence (Q6ZQW0 whole entry, species assumed): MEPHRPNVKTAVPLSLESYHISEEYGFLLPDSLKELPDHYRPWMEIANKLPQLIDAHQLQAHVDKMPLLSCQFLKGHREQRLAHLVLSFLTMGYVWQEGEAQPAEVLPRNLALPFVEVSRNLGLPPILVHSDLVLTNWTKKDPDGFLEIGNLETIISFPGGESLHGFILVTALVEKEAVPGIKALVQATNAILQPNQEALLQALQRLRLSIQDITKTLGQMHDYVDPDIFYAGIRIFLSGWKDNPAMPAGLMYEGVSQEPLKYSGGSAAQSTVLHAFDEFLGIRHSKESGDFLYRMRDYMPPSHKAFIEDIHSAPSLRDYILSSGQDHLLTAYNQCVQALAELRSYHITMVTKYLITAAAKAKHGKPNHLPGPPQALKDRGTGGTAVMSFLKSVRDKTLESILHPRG
- assay overview: Cellular IDO2 assay, doxycycline and 5-methoxy-L-tryptophan medium, colorimetric
- Type: cell-based
- recorded conditions: cellular level, 72 h incubation, signal at 480 nm
pIC50: −log10 of the molar value.
measured endpoint: pIC50

The examples below pair each entry with its known result.
{"mol": "CS(=O)(=O)c1ccc2c(c1)C(=O)c1nc3cc(F)cc(F)c3c(=O)n1-2", "pIC50": "6.30 to 7.30"}
{"mol": "O=C1c2cc(F)ccc2-n2c1nc1cc(-n3ccnc3)ccc1c2=O", "pIC50": "> 7.30"}
{"mol": "CC(=O)NCc1ccc2nc3n(c(=O)c2c1)-c1ccc(F)cc1C3=O", "pIC50": "> 7.30"}
{"mol": "[2H]C([2H])(Nc1ccc2c(=O)n3c(nc2c1)C(=O)c1cc(C#N)ccc1-3)c1ccc(F)cc1", "pIC50": "> 7.30"}
{"mol": "NS(=O)(=O)NCCNC(=O)c1ccc2c(c1)C(=O)c1nc3cc(Cl)ccc3c(=O)n1-2", "pIC50": "< 6.30"}
{"mol": "CN1CCN(Cc2ccc3c(=O)n4c(nc3c2)C(=O)c2cc(F)ccc2-4)CC1", "pIC50": "6.30 to 7.30"}
{"mol": "NCCNC(=O)c1ccc2c(c1)C(=O)c1nc3cc(Cl)cc(Cl)c3c(=O)n1-2", "pIC50": "< 6.30"}
{"mol": "O=C1c2cc([N+](=O)[O-])ccc2-n2c1nc1c(F)cccc1c2=O", "pIC50": "> 7.30"}

For every item in the list below, what is its measured pIC50?
1. CN(C)C(=O)c1ccc2c(c1)C(=O)c1nc3cc(Cl)cc(Cl)c3c(=O)n1-2
2. CC(=O)NCc1ccc2c(=O)n3c(nc2c1)C(=O)c1cc(F)ccc1-3

1. 6.30 to 7.30
2. > 7.30
